Target: rat NMB receptor (Rattus norvegicus, UniProt P24053)
Sequence (P24053 1-390): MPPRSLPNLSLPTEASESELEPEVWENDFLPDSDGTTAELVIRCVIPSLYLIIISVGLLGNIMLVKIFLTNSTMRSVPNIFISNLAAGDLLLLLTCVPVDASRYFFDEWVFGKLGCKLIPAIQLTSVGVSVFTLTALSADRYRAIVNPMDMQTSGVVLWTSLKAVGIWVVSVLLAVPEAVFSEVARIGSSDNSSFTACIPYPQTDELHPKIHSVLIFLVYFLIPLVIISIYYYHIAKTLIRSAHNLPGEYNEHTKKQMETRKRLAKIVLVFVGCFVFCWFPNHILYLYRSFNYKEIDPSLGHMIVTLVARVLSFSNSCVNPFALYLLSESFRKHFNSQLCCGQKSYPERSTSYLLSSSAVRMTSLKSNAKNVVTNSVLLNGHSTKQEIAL
pIC50: −log10 of the molar value. Square brackets hold non-standard residues; d marks the D form. Peptide text beside a SMILES is read from it. Nle = CCCC[C@H](N)C(=O)O; βAla = NCCC(=O)O
I would appreciate it if you labelled entries class 1 when pIC50 is 9 or higher, otherwise class 0.

INSERT INTO measurements (molecule, assigned_label) VALUES
  ('CC(C)C[C@H](NC(=O)[C@H](CC(C)C)NC(=O)[C@H](Cc1c[nH]cn1)NC(=O)CNC(=O)[C@@H](NC(=O)[C@H](C)NC(=O)[C@H](Cc1c[nH]c2ccccc12)NC(=O)[C@H](CCC(N)=O)NC(=O)[C@H](N)Cc1ccccc1)C(C)C)C(N)=O [[D-Phe^1, Leu^8,9] litorin, reference compound]', 'class 0'),
  ('CCCC[C@H](NC(=O)[C@H](Cc1ccccc1)NC(=O)[C@H](Cc1c[nH]cn1)NC(=O)CCNC(=O)[C@@H](NC(=O)[C@H](C)NC(=O)[C@H](Cc1c[nH]c2ccccc12)NC(=O)[C@H](CCC(N)=O)NC(=O)[C@H](N)Cc1c[nH]c2ccccc12)C(C)C)C(N)=O [Analog #4] (H-[dW]QWAV[βAla]HF[Nle]-NH2)', 'class 1'),
  ('CCCC[C@H](NC(=O)[C@H](CC(C)C)NC(=O)[C@H](Cc1c[nH]cn1)NC(=O)CCNC(=O)[C@@H](NC(=O)[C@H](C)NC(=O)[C@H](Cc1c[nH]c2ccccc12)NC(=O)[C@H](CCC(N)=O)NC(=O)[C@H](N)Cc1ccccc1)C(C)C)C(N)=O [Analog #5] (H-[dF]QWAV[βAla]HL[Nle]-NH2)', 'class 0'),
  ('CC(C)C[C@H](NC(=O)[C@H](CC(C)C)NC(=O)[C@H](Cc1c[nH]cn1)NC(=O)CNC(=O)[C@@H](NC(=O)[C@H](C)NC(=O)[C@H](Cc1c[nH]c2ccccc12)NC(=O)[C@H](CCC(N)=O)NC(=O)[C@@H]1CCC(=O)N1)C(C)C)C(N)=O [Leu-Litorin, reference compound]', 'class 0');
